Readings of IC50 for the listed binders
Target: T1, human CD112R expressed on Jurkat cells (human, UniProt Q6DKI7 1-326)
T1 construct: whole, on cells; Used for both Jurkat-CD112R OE cells and wild type Jurkat cells; which cells is said under assay; also called PVRIG; Jurkat-CD112R OE
T1 sequence (looked up): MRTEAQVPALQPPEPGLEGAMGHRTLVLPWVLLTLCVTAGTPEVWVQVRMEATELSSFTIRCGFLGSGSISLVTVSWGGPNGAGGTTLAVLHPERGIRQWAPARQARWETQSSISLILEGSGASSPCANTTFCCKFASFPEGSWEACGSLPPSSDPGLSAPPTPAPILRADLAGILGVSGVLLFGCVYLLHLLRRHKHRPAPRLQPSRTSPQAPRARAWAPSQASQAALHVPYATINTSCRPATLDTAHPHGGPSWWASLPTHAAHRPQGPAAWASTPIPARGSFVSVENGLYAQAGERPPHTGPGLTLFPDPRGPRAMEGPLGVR
Experiment: flow cytometry competition on Jurkat-CD112R OE cells; competitor biotinylated his-tagged human CD112
Kindly answer with a numeric value in ng/mL, unit omitted.

Consider the reported IC50 for these binders:
[[record]]
binder = "Antibody 36 (antibody, V domains shown, Purified as IgG; compared with an IgG1 isotype control and detected with anti-human IgG Fc; also called antibody clone number 36; clone 36) VH: QVQLVQSGAEVKKPGSSVKVSCKASGGTFATYAISWVRQAPGQGLEWMGGIFPLSGTANYAQKFQGRVTITADESTSTAYMELSSLRSEDTAVYYCARDTGRGYTRHFWFDPWGQGTLVTVSS VL: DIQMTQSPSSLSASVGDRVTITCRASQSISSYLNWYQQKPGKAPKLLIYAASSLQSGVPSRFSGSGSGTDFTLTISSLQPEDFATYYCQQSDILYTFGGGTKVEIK"
reported_result = 24.4

[[record]]
binder = "Antibody 5 (antibody, V domains shown, Purified as IgG; compared with an IgG1 isotype control and detected with anti-human IgG Fc; also called antibody clone number 5; clone 5) VH: EVQLLESGGGLVQPGGSLRLSCAASGFTFSDYAMIWVRQAPGKGLEWVSAISGGGESTYYADSVKGRFTISRDNSKNTLYLQMNSLRAEDTAVYYCAKDYSSGDWIDYGMDVWGQGTTVTVSS VL: DIQMTQSPSSLSASVGDRVTITCQASQDISNYLNWYQQKPGKAPKLLIYDASNLATGVPSRFSGSGSGTDFTFTISSLQPEDIATYYCQQFDLLPPTFGGGTKVEIK"
reported_result = 0.17

[[record]]
binder = "Antibody 15 (antibody, V domains shown, Purified as IgG; compared with an IgG1 isotype control and detected with anti-human IgG Fc; also called antibody clone number 15; clone 15) VH: EVQLVESGGGLVQPGRSLRLSCTASGFTFGDVAMSWFRQAPGKGLEWVGYIGSKAYGGETEYTASVKGRFTISRDGSKSIAYLQMNSLKTEDTAVYYCARAGHSYGSIASNWFDPWGQGTLVTVSS VL: DIQMTQSPSSLSASVGDRVTITCRASQSISSYLNWYQQKPGKAPKLLIYGASSLQSGVPSRFSGSGSGTDFTLTISSLQPEDFATYYCQQGFYTPWTFGGGTKVEIK"
reported_result = 0.51

[[record]]
binder = "Antibody 46 (antibody, V domains shown, in the mouse tumor studies it was used as mouse IgG2a; also called antibody clone number 46; clone 46) VH: EVQLVESGGGLVQPGRSLRLSCTASGFTFGDYAMSWFRQAPGKGLEWVGFIGSKAYGGTTEYTASVKGRFTISRDGSKSIAYLQMNSLKTEDTAVYYCARGPRRYTYGMDVWGQGTTVTVSS VL: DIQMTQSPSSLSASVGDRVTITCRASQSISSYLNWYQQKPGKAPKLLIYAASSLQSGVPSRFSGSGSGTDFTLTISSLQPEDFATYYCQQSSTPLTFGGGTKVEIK"
reported_result = 16.2

[[record]]
binder = "Antibody 44 (antibody, V domains shown, Purified as IgG; compared with an IgG1 isotype control and detected with anti-human IgG Fc; also called antibody clone number 44; clone 44) VH: QVQLVQSGAEVKKPGSSVKVSCKASGGTFDNYYISWVRQAPGQGLEWMGGIFPIFGTANYAQKFQGRVTITADESTSTAYMELSSLRSEDTAVYYCAREVGHYSGSPYYMDVWGKGTTVTVSS VL: DIQMTQSPSTLSASVGDRVTITCRASQSINSWLAWYQQKPGKAPKLLISDASSLESGVPSRFSGSGSGTEFTLTISSLQPDDFATYYCQQVGPYLTFGGGTKVEIK"
reported_result = 0.81

[[record]]
binder = "Antibody 58 (antibody, V domains shown, Purified as IgG; compared with an IgG1 isotype control and detected with anti-human IgG Fc; also called antibody clone number 58; clone 58) VH: EVQLVESGGGLVQPGRSLRLSCTASGFTFGDYAMSWFRQAPGKGLEWVGFIGSKFYGGETEYTASVKGRFTISRDGSKSIAYLQMNSLKTEDTAVYYCARGPRRYTYGMDVWGQGTTVTVSS VL: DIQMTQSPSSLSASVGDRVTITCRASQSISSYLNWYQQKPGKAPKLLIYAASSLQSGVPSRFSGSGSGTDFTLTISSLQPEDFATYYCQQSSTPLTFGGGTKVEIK"
reported_result = 2.8

[[record]]
binder = "Antibody 33 (antibody, V domains shown, Purified as IgG; compared with an IgG1 isotype control and detected with anti-human IgG Fc; also called antibody clone number 33; clone 33) VH: QVQLVQSGAEVKKPGSSVKVSCKASGGTFGNYAISWVRQAPGQGLEWMGGIIPIPGIANYAQKFQGRVTITADESTSTAYMELSSLRSEDTAVYYCARDTGRGYTRHFWFDPWGQGTLVTVSS VL: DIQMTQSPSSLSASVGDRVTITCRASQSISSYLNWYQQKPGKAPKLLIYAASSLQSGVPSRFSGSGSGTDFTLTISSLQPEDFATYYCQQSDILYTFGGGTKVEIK"
reported_result = 21.9

[[record]]
binder = "Antibody 2 (antibody, V domains shown, Purified as IgG; compared with an IgG1 isotype control and detected with anti-human IgG Fc; also called antibody clone number 2; clone 2) VH: EVQLVESGGGLVKPGGSLRLSCAASGFTFSEYTMNWVRQAPGKGLEWVSAIVGSGDSTYYADSVKGRFTISRDNSKNTLYLQMNSLRAEDTAVYYCAKDYSSGDWIDYGMDVWGQGTTVTVSS VL: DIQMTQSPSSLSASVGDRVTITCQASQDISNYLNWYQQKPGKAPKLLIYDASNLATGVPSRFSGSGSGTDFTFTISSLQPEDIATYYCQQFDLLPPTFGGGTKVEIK"
reported_result = 0.83

[[record]]
binder = "Antibody 35 (antibody, V domains shown, Purified as IgG; compared with an IgG1 isotype control and detected with anti-human IgG Fc; also called antibody clone number 35; clone 35) VH: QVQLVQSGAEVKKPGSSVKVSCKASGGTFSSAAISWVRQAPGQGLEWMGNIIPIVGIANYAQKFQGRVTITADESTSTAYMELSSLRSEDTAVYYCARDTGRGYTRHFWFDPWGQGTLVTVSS VL: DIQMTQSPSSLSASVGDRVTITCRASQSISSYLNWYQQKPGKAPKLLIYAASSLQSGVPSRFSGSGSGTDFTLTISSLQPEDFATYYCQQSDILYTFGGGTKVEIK"
reported_result = 16.2


// field: IC50; key: Antibody 34 (antibody, V domains shown, Purified as IgG; compared with an IgG1 isotype control and detected with anti-human IgG Fc; also called antibody clone number 34; clone 34) VH: QVQLVQSGAEVKKPGSSVKVSCKASGGTFSSAAISWVRQAPGQGLEWMGGIFPISGHANYAQKFQGRVTITADESTSTAYMELSSLRSEDTAVYYCARDTGRGYTRHFWFDPWGQGTLVTVSS VL: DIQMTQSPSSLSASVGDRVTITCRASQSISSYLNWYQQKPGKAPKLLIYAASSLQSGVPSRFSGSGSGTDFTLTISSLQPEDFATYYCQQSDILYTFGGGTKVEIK ; value = 13.2

The reported measurements were obtained from patent US20250051449A1.
